Reference source for all entries: PubChem BioAssay AID488977

TESTED TARGET: High affinity choline transporter 1 (Homo sapiens) (UniProt Q9GZV3)
Sequence (Q9GZV3 whole entry, looked up): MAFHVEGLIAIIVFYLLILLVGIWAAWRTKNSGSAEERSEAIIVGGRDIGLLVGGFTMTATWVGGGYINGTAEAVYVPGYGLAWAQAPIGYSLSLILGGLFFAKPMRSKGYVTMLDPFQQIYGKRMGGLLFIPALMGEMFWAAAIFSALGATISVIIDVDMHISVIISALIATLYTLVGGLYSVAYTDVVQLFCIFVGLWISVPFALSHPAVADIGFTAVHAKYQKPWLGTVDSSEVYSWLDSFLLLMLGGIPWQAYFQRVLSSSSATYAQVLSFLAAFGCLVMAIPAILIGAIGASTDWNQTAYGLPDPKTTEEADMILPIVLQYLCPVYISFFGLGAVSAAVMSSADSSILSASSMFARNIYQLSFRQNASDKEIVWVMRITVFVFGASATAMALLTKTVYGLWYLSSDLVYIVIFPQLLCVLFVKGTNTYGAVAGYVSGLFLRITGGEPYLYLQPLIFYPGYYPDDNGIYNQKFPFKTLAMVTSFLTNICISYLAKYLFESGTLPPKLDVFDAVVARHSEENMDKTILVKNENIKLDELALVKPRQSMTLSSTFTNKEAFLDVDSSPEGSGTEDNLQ
TEST SUMMARY: CHT positive allosteric modulators, primary screen, cell-based, membrane potential dye, choline EC20 (AID 488977)
RUN PARAMETERS: CHT-expressing cells, at 10 µM, LV-AA mutant CHT in HEK293 cells
The campaign covered roughly 310,000 compounds. About 1,500 (0.48%) were called active.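 Rule for the calls: active = initial fluorescence not abnormally high and integrated response B-score, plate-corrected, over 3 SD above library mean; inactive = the rest.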 This excerpt belongs to a sample that is enriched for actives.
Your answer must be one of the following: Y for active, N for inactive

COMPOUND: CCOC(=O)C(C)Sc1nc2ccccc2c(=O)n1CC1CCCCC1 (stereo not given)
ASSIGNED CLASS: N
--
COMPOUND: Cc1cc(Br)ccc1NC(=O)CN(C)C(=O)CN1C(=O)NC2(CCCC2)C1=O
ASSIGNED CLASS: N
--
COMPOUND: Cc1c(OC(C)C(=O)NCC2CCC(C(=O)O)CC2)ccc2c1oc(=O)c1ccccc12 (stereo not given)
ASSIGNED CLASS: N
--
COMPOUND: Cc1c(CCOC(=O)c2cc([N+](=O)[O-])ccc2Cl)sc[n+]1CCCCS(=O)(=O)[O-]
ASSIGNED CLASS: N
--
COMPOUND: Cc1c(NC(=O)C(C)OC(=O)c2c3c(nc4ccccc24)CCC(C)C3)c(=O)n(-c2ccccc2)n1C (stereo not given)
ASSIGNED CLASS: N

Please share the test call associated with Cc1ccc(C)c(OCCC(=O)Nc2cccc(S(=O)(=O)N3CCCC3)c2)c1 . N

Okay, and O=C(C1CCCO1)N1CCC(c2nc3ccccc3[nH]2)CC1 (stereo not given) ? N

Okay, and O=C(CSC1=NS(=O)(=O)c2cc(F)ccc2N1)Nc1ccccc1F ? N

Okay, and O=C(Nc1ccc(Cl)cn1)c1cnn2cccnc12 ? N

Okay, and Nc1scc[n+]1Cc1cccc2cccnc12 ? Y

Okay, and C1=C(CCNc2ncnc3c2cnn3-c2ccccc2)CCCC1 ? N

Okay, and C#CCOCCOCCOCCNc1nc(N2CCN(C(=O)CCCCCCCCCCNC(=O)[C@H]([C@@H](C)CC)n3cc(CCCCN=C(N)N)nn3)CC2)nc(N2CCN(C(=O)CCCCCCCCCCNC(=O)[C@H](CO)n3cc(CCCSC)nn3)CC2)n1 ? N

Okay, and C#CCOCCOCCOCCNc1nc(N2CCN(C(=O)CCCCCCCCCCNC(=O)[C@H](CCCCN)n3cc(C)nn3)CC2)nc(N2CCN(C(=O)CCCCCCCCCCNC(=O)[C@H](CO)n3cc(CCCSC)nn3)CC2)n1 ? Y

Okay, and Cc1nc(/N=C(\N)NC(=O)NC2CCCCC2)nc2ccccc12 ? N

Okay, and Cn1c(=O)[nH]c(=O)c2c1nc(N1CCN(CCO)CC1)n2CCSc1nc2ccccc2s1 ? Y

Okay, and COc1nc(N=C(N)N)nc2c(C)cccc12 ? Y

Okay, and Cc1ccc(S(=O)(=O)N2CCC(C(=O)NCCC3=CCCCC3)CC2)cc1C ? N

Okay, and Cc1cc(NC(=O)Nc2ccccc2)n(-c2ccccc2)n1 ? N

Okay, and Cn1cccc1C(=O)NNC(=O)COc1ccc(Br)cc1 ? N

Okay, and COc1ccc2nc(/N=C(\N)NC(=O)Nc3ccccc3)nc(C)c2c1 ? N

Okay, and Cn1c(=NC(=O)CSCC(=O)N2CCCCC2)sc2ccccc21 ? N

Okay, and CCCc1cc(=O)oc2c(C)c(OC(C)C(=O)NCC(O)c3ccccc3)ccc12 (stereo not given) ? N

Okay, and COc1ccccc1N(C)S(=O)(=O)c1ccc(Cl)c(C(=O)Nc2ccncc2)c1 ? N

Okay, and COc1ccc(C(=O)NCC(c2ccco2)N2CCc3ccccc32)cc1OC (stereo not given) ? N

Okay, and CCOc1ccc(C2c3[nH]c4ccccc4c3CCN2Cc2cccn2-c2ncccn2)cc1 (stereo not given) ? Y

Okay, and O=C(CCCn1c(SCC(=O)c2ccc(F)cc2)nc2ccccc2c1=O)NCc1ccco1 ? N
